Assign pEC50 to each entry below.
- measured_target: acetylcholine muscarinic M1 receptor (Homo sapiens)
- experiment: muscarinic FLIPR assay: intracellular calcium in CHOnfat/hM1 cells, potentiation of EC20 acetylcholine
- condition_set: IP = inflection point calculated from FLIPR values, 4 min preincubation, then EC20 acetylcholine (3 nM final)
// pEC50: -log10(molar conc.)

Query block: Give recorded pEC50. O=C1c2cc(Cc3ccc(Cl)nc3)c3ccccc3c2CN1[C@H]1CCCC[C@@H]1F [Example 4]
Result block: 6.51

Query block: Give recorded pEC50. Cc1ccc(Cc2cc3c(c4ccccc24)CN([C@H]2CCCC[C@@H]2O)C3=O)cn1 [Example 2]
Result block: 7.74

Query block: Give recorded pEC50. CSc1ccc(Cc2cc3c(c4ccccc24)CN([C@H]2CCCC[C@@H]2O)C3=O)cn1 [Example 10]
Result block: 7.54

Query block: Give recorded pEC50. N#Cc1ccc(Cc2cc3c(c4ccccc24)CN([C@H]2CCCC[C@@H]2O)C3=O)cn1 [Example 9]
Result block: 7.89

Query block: Give recorded pEC50. O=C1c2cc(Cc3ccc(C4CC4)nc3)c3cccnc3c2CN1[C@H]1CCCC[C@@H]1O [Example 25]
Result block: 7.98

Query block: Give recorded pEC50. CN(C)CCC1c2c(cc(Cc3ccc(Cl)nc3)c3cccnc23)C(=O)N1[C@H]1CCCC[C@@H]1O (stereo partly drawn) [Example 23]
Result block: 7.00

Query block: Give recorded pEC50. O=C1c2cc(Cc3ccc(OCc4ccccc4)nc3)c3cccnc3c2CN1[C@H]1CCCC[C@@H]1O [Example 19]
Result block: 7.39

Query block: Give recorded pEC50. O=C1c2cc(Cc3cccnc3)c3ccccc3c2CN1[C@H]1CCCC[C@@H]1O [Example 6]
Result block: 7.96

Query block: Give recorded pEC50. O=C1c2cc(Cc3ccc(N4CCOCC4)nc3)c3ccccc3c2CN1[C@H]1CCCC[C@@H]1O [Example 7]
Result block: 7.85

###

- measured_target: acetylcholine muscarinic M1 receptor (Homo sapiens, UniProt P11229)
- experiment: muscarinic FLIPR assay: intracellular calcium in CHOnfat/hM1 cells, potentiation of EC20 acetylcholine
- condition_set: IP = inflection point calculated from FLIPR values, 4 min preincubation, then EC20 acetylcholine (3 nM final)
metric: EC50 (nM)
Hi! Could you send only the number? It should be in nM, unit omitted.

Query block: Give recorded EC50. CC1c2c(cc(Cc3ccc(Cl)nc3)c3ccccc23)C(=O)N1c1ccccc1F (racemic) [Example 15]
Result block: 665

Query block: Give recorded EC50. COc1ccc(Cc2cc3c(c4ncccc24)C(C)(C)N([C@H]2CCCC[C@@H]2O)C3=O)cn1 [Example 18]
Result block: 310

Query block: Give recorded EC50. O=C1c2cc(Cc3ccc(Cl)nc3)c3ccccc3c2CN1C1C=CCCC1 (centres unmarked) [Example 5]
Result block: 2470

Query block: Give recorded EC50. O=C1c2cc(Cc3ccc(Cl)nc3)c3ccccc3c2CN1[C@H]1CCOC[C@@H]1O [Example 8]
Result block: 12

Query block: Give recorded EC50. CC(=O)O[C@H]1COCC[C@@H]1N1Cc2c(cc(Cc3ccc(O)nc3)c3ccccc23)C1=O [Example 12]
Result block: 5200

Query block: Give recorded EC50. O=C1c2nc(Cc3ccc(-n4cccn4)nc3)c3ccccc3c2CN1[C@H]1CCCC[C@@H]1O (racemic) [Example 17]
Result block: 29

Query block: Give recorded EC50. O=C1CCC(Cc2cc3c(c4ncccc24)CN([C@H]2CCCC[C@@H]2O)C3=O)CN1 (some centres unmarked) [Example 20]
Result block: 200

Query block: Give recorded EC50. O=C1c2nc(Cc3ccc(Cl)nc3)c3ccccc3c2CN1[C@H]1CCCC[C@@H]1O (racemic) [Example 16]
Result block: 49

###

Assign pEC50 to each entry below.
- measured_target: acetylcholine muscarinic M1 receptor (Homo sapiens, UniProt P11229)
- Sequence (P11229 1-460): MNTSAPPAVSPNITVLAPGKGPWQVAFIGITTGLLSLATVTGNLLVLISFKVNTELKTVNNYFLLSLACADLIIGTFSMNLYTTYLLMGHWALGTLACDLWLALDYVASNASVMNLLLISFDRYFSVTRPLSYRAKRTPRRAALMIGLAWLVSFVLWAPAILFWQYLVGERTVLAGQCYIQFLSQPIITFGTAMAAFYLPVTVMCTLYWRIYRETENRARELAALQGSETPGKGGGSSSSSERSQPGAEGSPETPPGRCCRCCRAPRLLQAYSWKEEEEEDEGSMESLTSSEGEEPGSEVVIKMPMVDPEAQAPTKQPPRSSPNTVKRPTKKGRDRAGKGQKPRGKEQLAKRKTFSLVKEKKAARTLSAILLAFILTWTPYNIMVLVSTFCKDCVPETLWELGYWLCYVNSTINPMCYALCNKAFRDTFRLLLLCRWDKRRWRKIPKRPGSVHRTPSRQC
- experiment: muscarinic FLIPR assay: intracellular calcium in CHOnfat/hM1 cells, potentiation of EC20 acetylcholine
- condition_set: IP = inflection point calculated from FLIPR values, 4 min preincubation, then EC20 acetylcholine (3 nM final)
// pEC50: -log10(molar conc.)

Query block: Give recorded pEC50. O=C1c2cc(Cc3ccc(Cl)nc3)c3cccnc3c2C(CC(O)CO)N1[C@H]1CCCC[C@@H]1O (some centres unmarked)
Result block: 7.72

Query block: Give recorded pEC50. "COc1ccc(Cc2cc3c(c4ccccc24)CN([C@H]2CCCC[C@@H]2O)C3=O)cc1"
Result block: 7.28

Query block: Give recorded pEC50. "COc1ccc(Cc2cc3c(c4ccccc24)CN(c2ncccc2C(F)(F)F)C3=O)cn1"
Result block: 6.84

Query block: Give recorded pEC50. "O=C1c2cc(Cc3ccc(O)nc3)c3ccccc3c2CN1[C@H]1CCOC[C@@H]1O"
Result block: 7.70

Query block: Give recorded pEC50. O=CCC1c2c(cc(Cc3ccc(Cl)nc3)c3cccnc23)C(=O)N1[C@H]1CCCC[C@@H]1O (some centres unmarked)
Result block: 7.82

Query block: Give recorded pEC50. "C=Cc1ccc(Cc2cc3c(c4ccccc24)CN([C@H]2CCCC[C@@H]2O)C3=O)cn1"
Result block: 7.96

Query block: Give recorded pEC50. "COc1ccc(Cc2cc3c(c4ccccc24)CN([C@H]2COCC[C@@H]2O)C3=O)cn1"
Result block: 7.28

Query block: Give recorded pEC50. O=C1c2cc(Cc3ccc(Cl)nc3)c3cccnc3c2C(CCO)N1[C@H]1CCCC[C@@H]1O (some centres unmarked)
Result block: 8.13
